inhibition values, listed per item
Experiment: wild-type TIM10 yeast growth inhibition – luminescence, uHTS, counter-screen for tim10-1 yeast inhibitor project, primary screen (AID 463195);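 note: wild-type TIM10 isogenic control strain grown at permissive 25 °C; 0% = DMSO yeast wells and 100% = minimal medium wells without yeast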
Settings: S. cerevisiae TIM10 strain growth, BacTiter-Glo luminescence, 24 h; at 10 µM; hits give high values
In all, about 330,000 compounds went through this assay and about 4,600 (1.4%) were called active. Only a selection was taken, and actives are over-represented in it overall.
Just the number please, in %, no unit attached.

Here's what some known entries look like.
INSERT INTO measurements (chemical_structure, numeric_value) VALUES
  ('O=C(N/N=C\c1cccc(Br)c1)c1ccccc1-n1cccc1', 51.9),
  ('Cc1cccc(NC(=O)c2ccc([N+](=O)[O-])o2)c1', 60.3);

--- query ---
IN: Reported inhibition for COc1ccccc1Nc1nc(N)nc(CSC(=S)N2CCOCC2)n1 : what is it?
OUT: 31.8
